system: Streptococcus sp.; assay: in vitro antibacterial evaluation, MIC by broth dilution; format: cell-based; details: broth dilution, inoculum 5×10^5 CFU/mL, 18 hours at 35° C.; strain GC 4565
Observable: MIC Streptococcus pneumoniae (GC 4565) (mg/L)

[[record]]
compound = "CC(c1ccccc1)C1NC(=O)CNC(=O)C(CO)NC(=O)C(C(O)C2CNC(=N)N2C2OC(CO)C(O)C(O)C2O)NC(=O)C(C(O)C2CNC(=N)N2)NC(=O)C(Cc2ccc(OC3OC(CO)C(OC4OC(COCc5cccs5)C(O)C(O)C4O)C(O)C3O)cc2)NC1=O (stereo not shown)"
system = "Streptococcus sp."
observable = "MIC Streptococcus pneumoniae (GC 4565)"
comparison_sign = "="
measured_result = 1

[[record]]
compound = "COc1ccc(COC2C(CO)OC(OC3C(CO)OC(Oc4ccc(CC5NC(=O)C(C(C)c6ccccc6)NC(=O)CNC(=O)C(CO)NC(=O)C(C(O)C6CNC(=N)N6C6OC(CO)C(O)C(O)C6O)NC(=O)C(C(O)C6CNC(=N)N6)NC5=O)cc4)C(O)C3O)C(O)C2O)cc1OCc1ccccc1 (stereo not shown) [Example 239a]"
system = "Streptococcus sp."
observable = "MIC Streptococcus pneumoniae (GC 4565)"
comparison_sign = "="
measured_result = 0.25

[[record]]
compound = "COc1ccc2cc(COC3C(CO)OC(OC4C(CO)OC(Oc5ccc(CC6NC(=O)C(C(C)c7ccccc7)NC(=O)CNC(=O)C(CO)NC(=O)C(C(O)C7CNC(=N)N7C7OC(CO)C(O)C(O)C7O)NC(=O)C(C(O)C7CNC(=N)N7)NC6=O)cc5)C(O)C4O)C(O)C3O)ccc2c1 (stereo not shown) [Example 230a]"
system = "Streptococcus sp."
observable = "MIC Streptococcus pneumoniae (GC 4565)"
comparison_sign = "<"
measured_result = 0.06

[[record]]
compound = "CC(C1CCCCC1)C1NC(=O)CNC(=O)C(CO)NC(=O)C(C(O)C2CNC(=N)N2C2OC(CO)C(O)C(O)C2O)NC(=O)C(C(O)C2CNC(=N)N2)NC(=O)C(Cc2ccc(OC3OC(CO)C(OC4OC5COC6(OC5C(O)C4O)C4CC5CC(C4)CC6C5)C(O)C3O)cc2)NC1=O (stereo not shown)"
system = "Streptococcus sp."
observable = "MIC Streptococcus pneumoniae (GC 4565)"
comparison_sign = "<"
measured_result = 0.12

